Item-by-item account of GI50
# Test system: SF-539
# run_description: NCI tumour cell line growth inhibition, 48 h
Active and inactive are the calls of the source. No stated cut-off is given here; in the data, active = GI50 up to about 1.1 µM and inactive = higher.
measured_endpoint: GI50

molecule: O=C(O)c1c(-c2cccc3ccccc23)sc(-c2cccc3ccccc23)c1C(=O)O
measured_endpoint: GI50
result: > 100 µM (inactive)

molecule: CC(=O)O[C@H]1CC[C@H]2[C@@H]3CCC4C(C)=NNC(=O)C4[C@H]3CC[C@]12C (some centres undefined)
measured_endpoint: GI50
result: 65.9 µM (inactive)

molecule: Cc1c(C(=O)NNc2ccccc2)n2c(S)nnc2c2ccccc12
measured_endpoint: GI50
result: > 100 µM (inactive)

molecule: CCN(CC)C1CC(O[C@H]2C[C@](O)(C(=O)CO)Cc3c(O)c4c(c(O)c32)C(=O)c2c(OC)cccc2C4=O)OC(C)C1O (some centres undefined)
measured_endpoint: GI50
result: 0.0461 µM (active)

molecule: O=C1Cc2cc3ccccc3nc2-c2ccccc2N1
measured_endpoint: GI50
result: 69.7 µM (inactive)

molecule: CCNC(=O)Cc1nc2c(N)ncnc2n1C1OC(CO)C(O)C1O (centres undefined)
measured_endpoint: GI50
result: > 100 µM (inactive)

molecule: O=C(Cc1ccccc1)Nn1c(-c2ccccc2)nc2ccccc2c1=O
measured_endpoint: GI50
result: > 100 µM (inactive)

molecule: COc1cc(N2C(=O)C(=O)C3(CCCCC3)C2=O)cc(OC)c1OC
measured_endpoint: GI50
result: > 100 µM (inactive)

molecule: CC1=C2C(O)C(C(C)CO)C(O)CC2(C)C(O)CC1 (centres undefined)
measured_endpoint: GI50
result: > 100 µM (inactive)

----------
# System: U-251
# run_description: NCI tumour cell line growth inhibition, 48 h
Active and inactive are the calls of the source. No stated cut-off is given here; in the data, active = GI50 up to about 1.1 µM and inactive = higher.
Item-by-item account of GI50

compound: CCCCOC(=O)NC(=O)c1cn(CCCOC(=O)CCCCCCCCC(=O)OCCCn2cc(C(=O)NC(=O)OCCCC)c(=O)n(C)c2=O)c(=O)n(C)c1=O
GI50: > 100 µM (inactive)

compound: O=C(Cc1ccccc1)Nn1c(-c2ccccc2)nc2ccccc2c1=O
GI50: > 100 µM (inactive)

compound: CCOC(OCC)(OCC)C(Br)CC (centres undefined)
GI50: > 100 µM (inactive)

compound: Cc1ccc(C2=Nc3c(N)nc(N)nc3NC(c3ccccc3)C2)cc1 (centres undefined)
GI50: 12.8 µM (inactive)

----------
# Tested on: OVCAR-8
# run_description: NCI tumour cell line growth inhibition, 48 h
Active and inactive are the calls of the source. Rule as the data show it: active = GI50 up to about 1.1 µM and inactive = higher.
Outcome codes: active, inactive

chemical_structure: Cc1ccc(-c2cc(-c3c(C)nn(C)c(=O)c3N)n[nH]2)cc1
class_label: inactive
//
chemical_structure: CCc1cc(CCC(=O)Nc2c(C)cccc2C)n[nH]1
class_label: inactive
//
chemical_structure: CCCCOC(=O)NC(=O)c1cn(CCCOC(=O)CCCCCCCCC(=O)OCCCn2cc(C(=O)NC(=O)OCCCC)c(=O)n(C)c2=O)c(=O)n(C)c1=O
class_label: inactive
//
chemical_structure: O=C1C(Cl)=C(N2CCOCC2)C(=O)c2c(O)ccc(O)c21
class_label: active

----------
# Tested on: IGROV-1
# run_description: NCI tumour cell line growth inhibition, 48 h
Activity calls are given as the source filed them. Cut-off read from the data, not from the text of the source: active = GI50 up to about 1.1 µM and inactive = higher.

compound: O=C1C2CCN(CC2)C1CN1CCOCC1 (stereo not given)
GI50: 19.3 µM (inactive)
//
compound: CCOC(=O)CCCOc1cc(-c2ccccc2F)nc2cc3c(cc12)OCO3
GI50: 24.6 µM (inactive)
//
compound: Cc1cc([C@H](C#N)c2nc3ccccc3[nH]2)nc(Cl)n1
GI50: 54.5 µM (inactive)
//
compound: Cc1nc(-c2ccccc2)cc2c1c(=O)oc1ccccc12
GI50: > 100 µM (inactive)
//
compound: O=C1c2ccccc2-c2c1c1ccccc1c(=O)n2CCO
GI50: 20.5 µM (inactive)
//
compound: Cc1nc(Nc2ccc(Cl)cc2)sc1C(=O)NNc1ccc([N+](=O)[O-])cc1[N+](=O)[O-]
GI50: 20.9 µM (inactive)
//
compound: [N-]=[N+]=Nc1ccc(CNc2cc(=O)[nH]c(=O)[nH]2)cc1
GI50: > 95.7 µM (inactive)
//
compound: CC1(C)N=C(/C(Cl)=[N+](/[O-])C(=O)c2ccc(F)cc2)C(C)(C)N1O
GI50: 19.5 µM (inactive)
//
compound: O=NN(CCCl)C(=O)NC1CCC(CC2CCC(NC(=O)N(CCCl)N=O)CC2)CC1 (stereo not given)
GI50: 29.9 µM (inactive)
//
compound: C[N+](C)(C)CC(=O)N/N=C(/CC1OC(=O)c2ccccc21)c1ccccc1O (stereo not given)
GI50: 37.8 µM (inactive)
